relative reactivity in FACS (% of control) values by entry
SYSTEM NAME: T1, human CD30, native, expressed on cells (human)
T1 construct: also called native CD30; CD30 on L540, L428, A431/CD30, Karpas299, SUDHL-1 and other CD30-positive cells
T1 chain: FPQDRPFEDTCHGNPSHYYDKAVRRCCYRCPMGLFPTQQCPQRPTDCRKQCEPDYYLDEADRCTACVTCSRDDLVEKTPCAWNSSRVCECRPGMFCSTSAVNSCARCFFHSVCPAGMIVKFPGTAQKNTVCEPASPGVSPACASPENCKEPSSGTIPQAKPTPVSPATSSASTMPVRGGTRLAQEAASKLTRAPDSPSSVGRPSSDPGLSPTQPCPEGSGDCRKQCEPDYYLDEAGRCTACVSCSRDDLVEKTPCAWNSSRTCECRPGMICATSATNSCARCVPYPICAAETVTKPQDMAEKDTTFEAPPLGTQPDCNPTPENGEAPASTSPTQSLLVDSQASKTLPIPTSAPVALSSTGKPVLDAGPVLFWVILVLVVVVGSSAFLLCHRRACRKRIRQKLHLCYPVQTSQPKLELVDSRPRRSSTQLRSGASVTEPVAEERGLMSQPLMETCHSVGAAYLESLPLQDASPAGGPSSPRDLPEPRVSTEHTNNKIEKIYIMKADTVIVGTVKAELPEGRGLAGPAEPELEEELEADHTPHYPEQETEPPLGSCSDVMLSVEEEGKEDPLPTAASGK
METHOD DESCRIPTION: FACS, L428 cells, MAb 5 µg/ml, control HeFi-I

Completed entries (count: 2):
T25 MAb (antibody, V domains shown) VH: QVTLKESGPGILQPSQTLSLTCSFSGFSLNTSGVGVGWIRQPSGKGLEWLAHIWWDDDERYNPVLKSRLTISKDTSSNQVFLKIANVDTADSATYYCVRSMVAWFPYWGRGTLVTVSA VL: DIVMSQSPSSLAVSVGEKFTVNCKSSQSLLYSSNQKNFLAWYQQKPGQSPKLLIYWASTRESGVPDRFIGSGSGTDFTLTISSVKAEDLAVYYCQQHYRYPWTFGGGTKLEIKR
80 % of control
T6 MAb (antibody, V domains shown) VH: QVQLKESGPGLVTPSQSLSITCTVSGFSLSKYSIHWVRQPPGRGLEWLGMIWGVENTDYNSALKSRLSISKDNSKSQVFLKMNSLQSDDTAMYYCARKDLGLYGMNYWGQGISVTVSA VL: DIVMTQSQKFMSTSVGDRVSVTCKASQNVGTNVAWYQQKPGQSPKALFYSASYRYSGVPDRFIGSGSGTVFTLTISNVQSEDLAEYFCQQYNTYPLTFGSGTKLEIER
140 % of control

Tell me its relative reactivity in FACS (% of control) given T24 MAb (antibody, V domains shown) VH: QVQLQQPGAELVRPGASVKLSCKASGYSFTSYWIDWVKQRPGQGLEWIGNIYPSNAYTNYNQKFKDKATLTVDKSSSTAYMQLSSPTSEDSAVYYCTSVLDYFYAMDYWGQGTSVTVSS VL: DIQMTQTTSSLSASLGDRVTISCRASQDISNYLNWYQQKPDGTVKLLIYYTSRLHSGVPSRFSGSGSGTDYSLTISNLEQEDIATYFCQQVNTLPRTFGGGTKLEIKR as the entry.
160 % of control

Tell me its relative reactivity in FACS (% of control) given T13 MAb (antibody, V domains shown) VH: QVQLQQSGAELAKPGASVKMSCKASGYTFTTYWMHWVKQRPGQGLEWIGYINPSTGYTDYNEKFKDKATLTADKSSSTAYMQLSSLTSEDSAVYYCVRRGSYDGNPFAYWGQGTLVSVSA VL: DIVMTQSHKFMSTSVGDRVTITCKASQDVSTAVAWYQQKPGHSPKLLIYWASTRHTGVPDRFTGSGSGTDYTLTISSVQVEDLALYYCQQHYSTPFTFGSGTKLEIKR as the entry.
180 % of control
